Test: LD50 in the mouse
Conditions: in vivo, ip, i.p. (intraperitoneal route)
observed_property: LD50 (mg/kg)
Numbers only, in mg/kg.

Item O=C(COc1ccc(Cl)cc1)OCCNC12CC3CC(CC(C3)C1)C2 [Compound I] has what recorded LD50?
415

----------
Assay: LD50 in the rat
Conditions: in vivo, p.o. (oral route)
observed_property: LD50

Item "O=C(COc1ccc(Cl)cc1)OCCNC12CC3CC(CC(C3)C1)C2" has what recorded LD50?
> 4000 mg/kg

----------
Experiment: LD50 in the mouse
Settings: in vivo, p.o. (oral route)
observed_property: LD50

Item O=C(COc1ccc(Cl)cc1)OCCNC12CC3CC(CC(C3)C1)C2 [Compound I] has what recorded LD50?
> 4000 mg/kg
